pKi listing for selected compounds.
Target: HIV protease (Human immunodeficiency virus type 1 group M subtype B)
Construct: plasmid containing HIV protease under the control of an inducible T7 promoter; made in house; host or cells: E. coli (inclusion bodies, T7 promoter)
Experiment: biochemical
Parameters: species or system HIV-1
Conditions: second table headed Table 2A; read-out: Ki
pKi: −log10 of the molar value.

Inquiry: Query: pKi; subject: CC(C)=CCN1C(=O)N(CC=C(C)C)C(Cc2ccccc2)C(O)C(O)C1Cc1ccccc1 (stereo not drawn)
Reply text: > 8.00

Inquiry: Query: pKi; subject: C=CCN1C(=O)N(CC=C(C)C)C(Cc2ccccc2)C(O)C(O)C1Cc1ccccc1 (stereo not drawn)
Reply text: > 8.00

Inquiry: Query: pKi; subject: O=C1N(Cc2cccc(OC(F)(F)F)c2)C(Cc2ccccc2)C(O)C(O)C(Cc2ccccc2)N1Cc1cccc(OC(F)(F)F)c1 (stereo not drawn)
Reply text: 6.00 to 8.00

Inquiry: Query: pKi; subject: C=CCN1C(=O)N(Cc2ccccc2)C(Cc2ccccc2)C(O)C(O)C1Cc1ccccc1 (stereo not drawn)
Reply text: > 8.00

Inquiry: Query: pKi; subject: O=C1N(Cc2ccc(F)c(C(F)(F)F)c2)C(Cc2ccccc2)C(O)C(O)C(Cc2ccccc2)N1Cc1ccc(F)c(C(F)(F)F)c1 (stereo not drawn)
Reply text: 6.00 to 8.00

Inquiry: Query: pKi; subject: CC(C)=CCN1C(=O)N(C)C(Cc2ccccc2)C(O)C(O)C1Cc1ccccc1 (stereo not drawn)
Reply text: 6.00 to 8.00

Inquiry: Query: pKi; subject: O=C1N(Cc2ccc(F)cc2)C(Cc2ccccc2)C(O)C(O)C(Cc2ccccc2)N1Cc1ccc(F)cc1 (stereo not drawn)
Reply text: > 8.00

Inquiry: Query: pKi; subject: O=C1N(Cc2ccccc2)C(Cc2ccccc2)C(O)C(O)C(Cc2ccccc2)N1CC1CC1 (stereo not drawn)
Reply text: > 8.00

Inquiry: Query: pKi; subject: O=C1N(Cc2cc(F)cc(C(F)(F)F)c2)C(Cc2ccccc2)C(O)C(O)C(Cc2ccccc2)N1Cc1cc(F)cc(C(F)(F)F)c1 (stereo not drawn)
Reply text: 6.00 to 8.00

Inquiry: Query: pKi; subject: CN1C(=O)N(Cc2ccccc2)C(Cc2ccccc2)C(O)C(O)C1Cc1ccccc1 (stereo not drawn)
Reply text: 6.00 to 8.00

Inquiry: Query: pKi; subject: O=C1N(CCCc2ccccc2)C(Cc2ccccc2)C(O)C(O)C(Cc2ccccc2)N1CCCc1ccccc1 (stereo not drawn)
Reply text: 6.00 to 8.00

Inquiry: Query: pKi; subject: O=C1N(Cc2ccc(OC(F)(F)F)cc2)C(Cc2ccccc2)C(O)C(O)C(Cc2ccccc2)N1Cc1ccc(OC(F)(F)F)cc1 (stereo not drawn)
Reply text: 6.00 to 8.00

---

Target: single-chain tethered dimer of HIV protease (Human immunodeficiency virus 1, UniProt P04585)
Assay: biochemical
Assay type: biochemical
Set-up: fused on or other part: A second copy of the same protease unit is joined to the first by a short peptide tether, giving one polypeptide
Details: Table 2m; read-out: HPLC Ki
MEASURED ATTRIBUTE: Ki

Example cases with answers are listed next.
MOLECULE	Ki
COCc1cccc(CN2C(Cc3ccccc3)C(O)C(O)C(Cc3ccccc3)N(Cc3cccc(COC)c3)S2(=O)=O)c1 (stereo not drawn) [23P]	10 to 1000 nM
O=S1(=O)NC(Cc2ccccc2)C(O)C(O)C(Cc2ccccc2)N1 (stereo not drawn) [23A]	> 1000 nM
O=C(NCCN1CCOCC1)c1cccc(CN2C(Cc3ccccc3)C(O)C(O)C(Cc3ccccc3)N(Cc3cccc(C(=O)NCCN4CCOCC4)c3)S2(=O)=O)c1 (stereo not drawn) [23Z]	10 to 1000 nM
O=S1(=O)N(CC2CCOC2)C(Cc2ccccc2)C(O)C(O)C(Cc2ccccc2)N1CC1CCOC1 (stereo not drawn) [23R]	10 to 1000 nM
O=S1(=O)N(Cc2ccc(O)cc2)C(Cc2ccccc2)C(O)C(O)C(Cc2ccccc2)N1Cc1ccc(O)cc1 (stereo not drawn) [23K]	< 10 nM

Inquiry: Query: Ki; subject: O=Cc1cccc(CN2C(Cc3ccccc3)C(O)C(O)C(Cc3ccccc3)N(Cc3cccc(C=O)c3)S2(=O)=O)c1 (stereo not drawn) [23Q]
Reply text: < 10 nM

Inquiry: Query: Ki; subject: O=S1(=O)N(Cc2cccc(C=NO)c2)C(Cc2ccccc2)C(O)C(O)C(Cc2ccccc2)N1Cc1cccc(C=NO)c1 (stereo not drawn) [23S]
Reply text: < 10 nM

Inquiry: Query: Ki; subject: CC(=NO)c1cccc(CN2C(Cc3ccccc3)C(O)C(O)C(Cc3ccccc3)N(Cc3cccc(C(C)=NO)c3)S2(=O)=O)c1 (stereo not drawn) [23U]
Reply text: < 10 nM

Inquiry: Query: Ki; subject: CN(C)CCNC(=O)c1cccc(CN2C(Cc3ccccc3)C(O)C(O)C(Cc3ccccc3)N(Cc3cccc(C(=O)NCCN(C)C)c3)S2(=O)=O)c1 (stereo not drawn) [23AA]
Reply text: 10 to 1000 nM

Inquiry: Query: Ki; subject: CCN1C(Cc2ccccc2)C(O)C(O)C(Cc2ccccc2)N(CC)S1(=O)=O (stereo not drawn) [23W]
Reply text: 10 to 1000 nM

Inquiry: Query: Ki; subject: O=S1(=O)N(Cc2ccc3ccccc3c2)C(Cc2ccccc2)C(O)C(O)C(Cc2ccccc2)N1Cc1ccc2ccccc2c1 (stereo not drawn) [23H]
Reply text: < 10 nM

---

pKi listing for selected molecules.
Target: HIV protease (Human immunodeficiency virus type 1 group M subtype B)
Construct: plasmid containing HIV protease under the control of an inducible T7 promoter; made in house; host or cells: E. coli (inclusion bodies, T7 promoter)
Assay: biochemical
Design: species or system HIV-1
Settings: Ki, Table 1a
pKi: −log10 of the molar value.

MOLECULE	pKi
C=CCN1C(=O)N(CC=C)[C@H](Cc2ccccc2)[C@@H](O)[C@H](O)[C@H]1Cc1ccccc1	6.00 to 8.00

We next turn to a different molecule, shown below.
Inquiry: Query: pKi; subject: C=CCN1C(=O)N(CC=C)C(Cc2ccccc2)C(O)C(O)C1Cc1ccccc1 (centres unmarked)
Reply text: > 8.00

---

pKi listing for selected molecules.
Target: HIV protease (Human immunodeficiency virus type 1 group M subtype B, UniProt P04585)
Construct: plasmid containing HIV protease under the control of an inducible T7 promoter; made in house; host or cells: E. coli (inclusion bodies, T7 promoter)
Assay: biochemical
Set-up: species or system HIV-1
Details: Table 1d, upper part; read-out: Ki
pKi: −log10 of the molar value.

Example cases with answers are listed next.
MOLECULE	pKi
O=C1N(Cc2ccc3ccccc3c2)C(Cc2ccccc2)C2OC(=S)OC2C(Cc2ccccc2)N1Cc1ccc2ccccc2c1 (stereo not shown)	< 6.00
C=CCN1C(=O)N(CC=C)C(Cc2ccccc2)C2OS(=O)OC2C1Cc1ccccc1 (stereo not shown)	> 8.00
CC(=O)OC1C(O)C(Cc2ccccc2)N(Cc2ccc3ccccc3c2)C(=O)N(Cc2ccc3ccccc3c2)C1Cc1ccccc1 (stereo not shown)	6.00 to 8.00

Inquiry: Query: pKi; subject: O=C1N(Cc2ccc3ccccc3c2)C(Cc2ccccc2)C2OS(=O)OC2C(Cc2ccccc2)N1Cc1ccc2ccccc2c1 (stereo not shown)
Reply text: > 8.00

---

Target: single-chain tethered dimer of HIV protease (Human immunodeficiency virus 1)
Experiment: biochemical
Format: biochemical
Design: fused on or other part: A second copy of the same protease unit is joined to the first by a short peptide tether, giving one polypeptide
Conditions: Table 2d; HIV protease inhibition, HPLC method; read-out: HPLC K1
Ki listing for selected compounds.

Example cases with answers are listed next.
COMPOUND	Ki
CNc1noc2ccc(CN3C(=O)N(Cc4ccc5onc(NC)c5c4)C(Cc4ccccc4)C(O)C(O)C3Cc3ccccc3)cc12 (stereo not shown) [15DK]	< 10 nM
O=C1N(Cc2ccc3nnn(O)c3c2)C(Cc2ccccc2)C(O)C(O)C(Cc2ccccc2)N1Cc1ccc2nnn(O)c2c1 (stereo not shown) [15CU]	10 to 1000 nM
COC(=O)Cc1cccc(CN2C(=O)N(Cc3cccc(CC(=O)OC)c3)C(Cc3ccccc3)C(O)C(O)C2Cc2ccccc2)c1 (stereo not shown) [15DW]	< 10 nM
O=C(NCCN1CCOCC1)c1cccc(CN2C(=O)N(Cc3cccc(C(=O)NCCN4CCOCC4)c3)C(Cc3ccccc3)C(O)C(O)C2Cc2ccccc2)c1 (stereo not shown) [15XU]	< 10 nM
O=C(NCc1ccccn1)c1cccc(CN2C(=O)N(Cc3cccc(-c4cc[nH]n4)c3)C(Cc3ccccc3)C(O)C(O)C2Cc2ccccc2)c1 (stereo not shown) [15CB]	< 10 nM

Inquiry: Query: Ki; subject: O=C1N(Cc2cccc(CO)c2)C(Cc2ccccc2)C(O)C(O)C(Cc2ccccc2)N1Cc1ccccc1O (stereo not shown) [15EB]
Reply text: 10 to 1000 nM

Inquiry: Query: Ki; subject: O=C1N(Cc2ccc3c(c2)NS(=O)(=O)N3)C(Cc2ccccc2)C(O)C(O)C(Cc2ccccc2)N1Cc1ccc2c(c1)NS(=O)(=O)N2 (stereo not shown) [15CW]
Reply text: < 10 nM

meta.source: patent USRE37781E1
